System: T-47D breast
Assay: NCI-60 one-dose screen, 48 h
Conditions: 10 µM unless noted
Procedure: Growth inhibition of the T-47D human tumor cell line is measured as a screen for anti-cancer activity. Cells are grown in 96 well plates and exposed to the test compound for 48 hours. Compounds are tested at a single concentration, which is 10^-5 M for most compounds. The reported endpoint is percent growth (GI% or GIPRCNT), where numbers from 0 - 100% represent growth inhibition, and numbers from -100% - 0 represent cell death. For example, a value of 40 represents 60% growth inhibition. […]
About 83,000 compounds went through this panel and 20% of them were active in at least one assay; those are over-represented in the sample as a whole. Activity calls are given as the source filed them. The calls were made as follows: active = growth percent below 10; inactive = the rest.
Lab note: assign the record to one of active, inactive

>>> label("Cn1ccnc1C(=O)/C=C/c1ccc(CC(=O)Nc2cc(C(F)(F)F)cc(C(F)(F)F)c2)cc1")
"inactive"
>>> label("CCCCCCCCCCCCCCCCOCCCOP(=O)(O)C1CCCN(O)C1=O (stereo not given)")
"inactive"
>>> label("O=S(=O)(c1ccccc1)n1cc2c(c1)-c1nc(Nc3ncccn3)sc1CC2")
"inactive"
>>> label("CC(O)(c1ccccc1)C(c1ccccc1)C1CCCCN1 (stereo not given)")
"inactive"
>>> label("C=CC(=O)N1CCN(c2cccc(Oc3nccc(Nc4nnc(-c5ccc(Br)cc5)s4)n3)c2)CC1")
"inactive"

Now look at this one.
input: How did this test come out for Ic1ccc(OCCCCn2ccnc2)cc1 ?
output: inactive

---

Tested on: T-47D breast
Assay: NCI-60 one-dose screen, 48 h (100 = growth as untreated, 0 = no growth, -100 = all killed)
Conditions: 10 µM unless noted
Description: Growth inhibition of the T-47D human tumor cell line is measured as a screen for anti-cancer activity. Cells are grown in 96 well plates and exposed to the test compound for 48 hours. Compounds are tested at a single concentration, which is 10^-5 M for most compounds. The reported endpoint is percent growth (GI% or GIPRCNT), where numbers from 0 - 100% represent growth inhibition, and numbers from -100% - 0 represent cell death. For example, a value of 40 represents 60% growth inhibition. […]
The panel holds about 83,000 compounds, 20% with a hit somewhere; the sample as a whole holds those more often.
assayReadout: growth (%)
Kindly provide the numeric value in % only, without the unit symbol.

>>> observed("Cc1c(-c2ccc(O)cc2)n(Cc2ccc(OCCN3CCCCCC3)cc2)c2ccc(O)cc12")
58.4
>>> observed("c1ccc(Cn2cc3c(c2)-c2oncc2CC3)cc1")
42.1
>>> observed("CCN(CC)S(=O)(=O)c1ccc(S(=O)(=O)N2CCC[C@@H](C(=O)N3CCN(c4nc(C(C)C)no4)CC3)C2)cc1")
43.1
>>> observed("O=C(Nc1ccc(Oc2cccc(F)c2)c(Cl)c1)c1cccnc1")
33.5

input: Retrieve growth measured for Cc1ccc2c(Cn3cc(CSc4nc5ccccc5o4)nn3)cc(=O)oc2c1 and print it.
output: 100

input: Retrieve growth measured for CC(C)(Sc1cc(C(C)(C)C)c(O)c(C(C)(C)C)c1)Sc1cc(C(C)(C)C)c(OC(=O)CCCC(=O)O)c(C(C)(C)C)c1 and print it.
output: 36.6

input: Retrieve growth measured for COc1ccc(/C=C/C(=O)c2ccc(Nc3ccnc4cc(Cl)ccc34)cc2)cc1 and print it.
output: 83.1

input: Retrieve growth measured for CCOC(=O)Cc1cnc(N/N=C(\C)c2cc3ccccc3o2)s1 and print it.
output: 70.5

input: Retrieve growth measured for CC1=C([Se]CC(OC(=O)CC[Se]c2ccccc2)C(=O)NC(C)(C)C)C(=O)c2ccccc2C1=O (centres undefined) and print it.
output: -54.5
